Target: T1, HCoV-229E S ectodomain (17–1115 aa), 229E S trimer (human coronavirus 229E, UniProt P15423 17-1115)
T1 chain: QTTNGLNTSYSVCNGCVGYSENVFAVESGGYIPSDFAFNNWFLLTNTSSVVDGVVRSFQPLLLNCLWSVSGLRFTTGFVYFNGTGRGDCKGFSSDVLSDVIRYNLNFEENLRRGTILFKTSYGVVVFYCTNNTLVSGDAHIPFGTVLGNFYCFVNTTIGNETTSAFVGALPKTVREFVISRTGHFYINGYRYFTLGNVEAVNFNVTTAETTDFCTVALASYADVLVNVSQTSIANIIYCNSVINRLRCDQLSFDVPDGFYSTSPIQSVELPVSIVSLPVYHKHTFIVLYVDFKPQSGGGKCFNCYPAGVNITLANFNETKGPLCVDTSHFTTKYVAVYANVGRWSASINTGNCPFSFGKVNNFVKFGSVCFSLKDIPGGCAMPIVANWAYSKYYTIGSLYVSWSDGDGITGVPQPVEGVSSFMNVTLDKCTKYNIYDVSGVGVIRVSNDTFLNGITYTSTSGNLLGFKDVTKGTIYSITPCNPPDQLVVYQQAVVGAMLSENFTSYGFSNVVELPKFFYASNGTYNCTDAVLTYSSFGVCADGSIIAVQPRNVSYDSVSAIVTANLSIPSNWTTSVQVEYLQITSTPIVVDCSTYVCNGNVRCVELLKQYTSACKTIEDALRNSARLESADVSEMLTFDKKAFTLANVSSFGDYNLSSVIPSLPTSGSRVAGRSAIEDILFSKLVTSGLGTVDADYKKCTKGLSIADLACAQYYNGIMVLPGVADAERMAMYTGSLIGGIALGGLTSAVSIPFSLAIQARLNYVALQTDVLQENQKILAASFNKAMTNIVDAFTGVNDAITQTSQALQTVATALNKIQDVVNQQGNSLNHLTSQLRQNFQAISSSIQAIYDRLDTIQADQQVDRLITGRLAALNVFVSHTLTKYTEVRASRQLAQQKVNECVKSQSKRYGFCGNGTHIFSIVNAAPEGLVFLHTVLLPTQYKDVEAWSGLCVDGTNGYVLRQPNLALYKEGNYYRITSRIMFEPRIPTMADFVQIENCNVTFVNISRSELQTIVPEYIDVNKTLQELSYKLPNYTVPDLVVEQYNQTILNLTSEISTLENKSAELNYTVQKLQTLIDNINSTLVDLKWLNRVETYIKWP
Test: SPR
reported-metric: Kd
Hi, when you answer, please include the unit after the number. Thanks!

Asked: Look at this binder and give its reported Kd. Fab F07 (Fab, V domains shown) VH: EVQLVESGGGLVQPGGSLRLSCAASGFNISYYSIHWVRQAPGKGLEWVASIYPYYGYTSYADSVKGRFTISADTSKNTAYLQMNSLRAEDTAVYYCARSSGYYHYPYSHSGLDYWGQGTLVTVSS VL: DIQMTQSPSSLSASVGDRVTITCRASQSVSSAVAWYQQKPGKAPKLLIYSASSLYSGVPSRFSGSRSGTDFTLTISSLQPEDFATYYCQQSYYWGGPITFGQGTKVEIK
Given back: 1.4 nM
